System: Abeta 40 in cerebrospinal fluid (CSF) and brain
Test: In vivo inhibition of beta-secretase (Abeta 40 reduction in CSF and brain)
Conditions: rat, brain, Abeta 40, 3 mpk, after 4 hrs; read-out: Brain A-beta reduction % at 3 mpk
Protocol: In Vivo Inhibition of Beta-Secretase Several animal models, including mouse, rat, dog, and monkey, may be used to screen for inhibition of beta-secretase activity in vivo following administration of a test compound sample. Animals used in this invention can be wild type, transgenic, or gene knockout animals. […] CSF or brain supernatants are then analyzed for the presence of A-beta peptide by specific sandwich ELISA assays based on ECL (Electrochemiluminescence) technology. […]
Entry flag: Met if inhibition in vivo at 3 mg/kg reaches 60%; Not met if it does not.

1. NC1=N[C@@]2(CO1)c1cc(-c3cccnc3F)ccc1Oc1c2cc(C2=CCCOC2)nc1F [Example 688]
Met
2. CC1(C)C=C(c2cc3c(c(F)n2)Oc2ccc(-c4cccnc4F)cc2[C@@]32CSC(N)=N2)CCO1 [Example 1033]
Not met
3. NC1=N[C@@]2(CS1)c1cc(-c3cccnc3F)ccc1Oc1c2cc(C2=CCOCC2)nc1F [Example 1001]
Met
4. CC#Cc1cncc(-c2ccc3c(c2)[C@@]2(COC(N)=N2)c2cc(-c4cnn(C)c4)cc(F)c2O3)c1 [Example 947]
Not met
5. CC#Cc1cncc(-c2ccc3c(c2)[C@@]2(COC(N)=N2)c2cc(C#CC(C)(C)O)cc(F)c2O3)c1 [Example 951]
Not met

----------
target: Beta Secretase enzyme (BACE) (Homo sapiens, UniProt P56817); assay: In vitro enzymatic BACE FRET (fluorescence resonance energy transfer) assay; format: biochemical; settings: average IC50, enzyme assay; read-out: BACE 1 FRET assay
Sequence (P56817 46-501, species assumed): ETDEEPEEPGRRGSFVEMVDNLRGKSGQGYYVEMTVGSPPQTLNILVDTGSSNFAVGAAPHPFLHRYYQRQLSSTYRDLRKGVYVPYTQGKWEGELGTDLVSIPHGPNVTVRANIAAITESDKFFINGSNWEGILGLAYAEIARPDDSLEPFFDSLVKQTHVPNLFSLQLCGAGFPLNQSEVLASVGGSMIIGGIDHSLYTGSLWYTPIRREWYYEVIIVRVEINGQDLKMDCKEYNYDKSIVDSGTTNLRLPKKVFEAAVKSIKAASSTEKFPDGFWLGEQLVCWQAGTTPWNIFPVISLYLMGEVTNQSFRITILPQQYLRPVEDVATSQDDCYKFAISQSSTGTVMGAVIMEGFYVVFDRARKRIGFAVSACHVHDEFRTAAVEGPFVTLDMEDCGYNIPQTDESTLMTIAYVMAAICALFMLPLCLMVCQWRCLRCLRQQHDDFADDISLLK
Measured parameter: IC50

1. NC1=N[C@@]2(CO1)c1cc(-c3cnccc3F)ccc1Oc1c(F)cc(C3=CCOCC3)cc12
0.5 nM
2. CC(F)(F)COc1cc(F)c2c(c1)[C@]1(CSC(N)=N1)c1cc(-c3cccnc3F)ccc1O2
1 nM
3. NC1=N[C@@]2(CO1)c1cc(-c3cnccc3F)ccc1Oc1ncc(C3=CCOCC3)cc12
2.6 nM
4. N#Cc1cccc(-c2ccc3c(c2)[C@@]2(COC(N)=N2)c2cc(C4=CCOCC4)cnc2O3)c1
1.3 nM
5. CC#Cc1cncc(-c2ccc3c(c2)[C@@]2(COC(N)=N2)c2cc(-c4ccncc4)nc(OC)c2O3)c1
0.7 nM

----------
system: Aβ40 in conditioned medium of cells stably expressing Amyloid Precursor Protein (APP); experiment: In vitro BACE cell-based assay (Aβ40 in conditioned medium, sandwich ELISA); conditions: Homo sapiens, HEK293, average IC50; read-out: HEK cell assay
Measured parameter: IC50 (nM)

1. CC1(C)CC(=O)N(c2cc(F)c3c(c2)[C@]2(COC(N)=N2)c2cc(-c4cccnc4F)ccc2O3)C1 [Example 797]
7
2. NC1=N[C@@]2(CS1)c1cc(-c3cccnc3F)ccc1Oc1ncc(-c3ncccn3)cc12 [Example 728]
80
3. CC#Cc1cncc(-c2ccc3c(c2)[C@@]2(COC(N)=N2)c2cc(-c4cccnc4)nc(F)c2O3)c1 [Example 759]
3
4. CC(C)(F)COc1cc(F)c2c(c1)[C@]1(COC(N)=N1)c1cc(-c3ccc(F)nc3)ccc1O2 [Example 259]
19.8

----------
target: Beta Secretase enzyme (BACE) (Homo sapiens, UniProt P56817); assay: In vitro enzymatic BACE FRET (fluorescence resonance energy transfer) assay; type: biochemical; settings: average IC50, enzyme assay; read-out: BACE 1 FRET assay
Kindly apply the following: rule met if IC50 is less than 4 nM, rule not met in every other case.

1. NC1=N[C@@]2(CO1)c1cc(OCc3cccc(Br)c3)ccc1Oc1ncc(-c3cccnc3)cc12
rule met
2. NC1=N[C@]2(CO1)c1cc(Br)ccc1Oc1nc(F)ccc12
rule not met
3. NC1=N[C@]2(CO1)c1cc(C3=CCOCC3)cc(F)c1Oc1ccc(-c3cccnc3F)c(F)c12
rule not met
4. NC1=N[C@@]2(CS1)c1cc(-c3cccnc3F)ccc1Oc1ncc(-c3ccnc(F)c3)cc12
rule met
5. NC1=N[C@]2(CO1)c1cc(N3CC[C@@H](F)C3)cc(F)c1Oc1ccc(-c3cncnc3)c(F)c12
rule not met
6. NC1=N[C@@]2(CO1)c1cc(-c3ccnc(F)c3)ccc1Oc1cnc(-c3ccnc(F)c3)cc12
rule not met
7. NC1=N[C@@]2(CS1)c1cc(-c3cccnc3F)ccc1Oc1ncc(-c3ncccn3)cc12
rule met
8. NC1=N[C@@]2(CO1)c1cc(-c3cccnc3)ccc1Oc1cnc(NCC(F)(F)F)cc12
rule not met
9. NC1=N[C@@]2(CS1)c1cc(-c3cccnc3F)ccc1Oc1c(F)cc(-c3cccnc3)cc12
rule met
10. CC1(C)C[C@@H](c2cc(F)c3c(c2)[C@]2(COC(N)=N2)c2cc(-c4cnccn4)ccc2O3)CCO1
rule met
11. NC1=N[C@]2(CO1)c1cc(-c3ccnc(F)c3)ccc1Oc1cnc(Cl)cc12
rule not met

----------
test system: Aβ40 in conditioned medium of cells stably expressing Amyloid Precursor Protein (APP); experiment: In vitro BACE cell-based assay (Aβ40 in conditioned medium, sandwich ELISA); conditions: Homo sapiens, HEK293, average IC50; read-out: HEK cell assay
pIC50: −log10 of the molar value.
Measured parameter: pIC50

1) Cn1cc(-c2ccc3c(c2)[C@@]2(COC(N)=N2)c2cc(OCC4(C)COC4)c(F)cc2O3)cn1
6.31
2) Cc1ccnc(Oc2ccc3c(c2)[C@@]2(COC(N)=N2)c2cc(N4CCOCC4)cc(F)c2O3)c1
6.22
3) CC#Cc1cncc(-c2ccc3c(c2)[C@@]2(CSC(N)=N2)c2cc(-c4ccnc(F)c4)cnc2O3)c1
8.52
4) NC1=N[C@@]2(CO1)c1cc(-c3ccccc3)ccc1Oc1cnc(-c3ccccc3)cc12
6.27
5) N#Cc1cc(-c2ccc3c(c2)[C@@]2(CSC(N)=N2)c2cc(C4=CCOCC4)cnc2O3)ccc1F
8.22

----------
target: Beta Secretase enzyme (BACE) (Homo sapiens, UniProt P56817); assay: In vitro enzymatic BACE FRET (fluorescence resonance energy transfer) assay; assay type: biochemical; conditions: average IC50, enzyme assay; read-out: BACE 1 FRET assay
pIC50: −log10 of the molar value.
Measured parameter: pIC50

1. COCC1SC(N)=N[C@@]12c1cc(-c3cccnc3F)ccc1Oc1cnc(Cl)cc12 (stereo partly drawn) [Example 1088]
6.94
2. Cc1cnc(F)c(-c2ccc3c(c2)[C@@]2(COC(N)=N2)c2cc(-c4ccnc(F)c4)ncc2O3)c1 [Example 422]
8.68
3. CC1(C)C=C(c2cnc3c(c2)[C@@]2(COC(N)=N2)c2c(ccc(-c4cncnc4)c2F)O3)CCO1 [Example 354]
7.04
4. COc1nc(C2=CCCOC2)cc2c1Oc1ccc(-c3cccnc3F)cc1[C@@]21COC(N)=N1 [Example 833]
9.15
5. Cc1cc(-c2ccc3c(c2)[C@@]2(COC(N)=N2)c2cc(C4=CCOCC4)cnc2O3)cnc1F [Example 467]
7.68
6. CC1(COc2cc(F)c3c(c2)[C@]2(CSC(N)=N2)c2cc(-c4cccnc4)c(F)cc2O3)COC1 [Example 878]
9.40

----------
test system: Aβ40 in conditioned medium of cells stably expressing Amyloid Precursor Protein (APP); assay: In vitro BACE cell-based assay (Aβ40 in conditioned medium, sandwich ELISA); conditions: Homo sapiens, HEK293, average IC50; read-out: HEK cell assay
pIC50: −log10 of the molar value.
Each entry below carries its recorded pIC50.
Measured parameter: pIC50

1) NC1=N[C@@]2(CO1)c1cc(-c3cncc(Cl)c3)ccc1Oc1c(F)cc(N3CCOCC3)cc12 [Example 208]
8.42
2) NC1=N[C@@]2(CO1)c1cc(-c3cccnc3F)ccc1Oc1c(F)cc(-c3ccccn3)cc12 [Example 196]
8.01
3) COc1cncc(-c2ccc3c(c2)[C@@]2(COC(N)=N2)c2cc(C4=CCOCC4)ccc2O3)c1 [Example 194]
7.56
4) COc1nc(-c2ccnc(F)c2)cc2c1Oc1ccc(-c3cccnc3F)cc1[C@@]21COC(N)=N1 [Example 831]
7.15
5) NC1=N[C@@]2(CO1)c1cc(-c3cncc(F)c3)ccc1Oc1c(F)cc([C@H]3CCCOC3)cc12 [Example 285]
7.69
6) C=Cc1cc2c(c(F)n1)Oc1ccc(-c3cncc(F)c3)cc1C21COC(N)=N1 (stereo not shown) [Example 848]
8.70
7) CC(C)(O)CCc1ccc2c(c1)[C@]1(COC(N)=N1)c1cc(-c3cncnc3)c(F)cc1O2 [Example 96]
7.64
8) CC1(COc2cc3c(cc2F)Oc2ccc(-c4cccc(Cl)c4)cc2[C@@]32COC(N)=N2)COC1 [Example 310]
6.95
9) CC1(C#Cc2cc3c(c(F)n2)Oc2ccc(-c4cccnc4F)cc2[C@@]32COC(N)=N2)COC1 [Example 738]
8.00
10) NC1=N[C@@]2(CS1)c1cc(-c3cncc(F)c3)ccc1Oc1ncc(-c3ncccn3)cc12 [Example 771]
7.02
11) CC1(COc2cc(F)c3c(c2)[C@]2(COC(N)=N2)c2cc(-c4cncc(F)c4)ccc2O3)COC1 [Example 273]
8.51
12) Cn1ccc(-c2cnc3c(c2)[C@]2(COC(N)=N2)c2cc(C#CC4CC4)ccc2O3)n1 [Example 183]
6.72
13) NC1=N[C@@]2(CS1)c1cc(-c3cnccc3F)ccc1Oc1ncc(C3=CCCOC3)cc12 [Example 773]
7.85
